# assay_text: BSK_SAg_Proliferation: Cell Proliferation Assessment in the BioMAP Diversity Plus: SAg Assay (AID 2283095);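 further: relative cell number as total protein by SRB absorbance in sub-confluent culture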
# condition_info: primary human HUVEC with PBMC
Calls of active or inactive are those of the source. How the source made its calls: active means hit-call score of the fitted dose curve at least 0.9, where 1 is the maximum; inactive means score below 0.9.
Result category, one only: active, inactive

Query :: Look up the recorded call for "CCNc1nc(NC(C)(C)C)nc(SC)n1" in this test.
Result :: inactive

Query :: What about "Cc1ccccc1N" ?
Result :: inactive

Query :: Then "CC(C)c1ccc(CO)cc1" ?
Result :: inactive

Query :: Thanks! And CC(=O)C(Cl)C(=O)N(C)C (configuration not stated) ?
Result :: active

Query :: Same again, this time with "CCOP(=S)(OCC)SCCS(=O)(=O)CC"
Result :: inactive

Query :: Also, "COc1cc(OC)nc(NC(=O)NS(=O)(=O)c2ncccc2C(=O)N(C)C)n1" please.
Result :: inactive

Query :: Same question for "NC(=S)Nc1ccccc1" please.
Result :: inactive

Query :: Now this one: "CCC(C)(C)c1ccc(O)c(C(C)(C)CC)c1"
Result :: active

Query :: Thanks! And "C[C@]12CCC(=O)C[C@@H]1CC[C@@H]1[C@@H]2CC[C@]2(C)[C@@H](O)CC[C@@H]12" ?
Result :: inactive

Query :: # repeat for "COC(=O)Cc1ccccc1"
Result :: inactive

Query :: Then this compound: "Oc1cccc2cccnc12"
Result :: active

Reference for the values: PubChem BioAssay (EPA / NIEHS)
